System: neonatal rat ventricular cardiomyocytes (NVCM)
Assay: Inherent toxicity (LDH release) in NVCM
Format: cell-based
Set-up: key: % of total LDH activity
Details: compound alone 10 µM; NVCM; Suppl.Fig.4
Measured LDH release (inherent toxicity), mean of independent replicates accompanies every entry in the list below.
# respond with the number and nothing more

Recorded results for 2 compounds are shown here.
CCCOc1ccc2c(C)cc(=O)oc2c1C(=O)N1CCCc2ccccc21 [4a]    16.3565
CCc1cc(=O)oc2c(C(=O)N3CCCc4ccccc43)c(O)ccc12 [2b]    17.3516

Then there is this compound:
Report the value of LDH release (inherent toxicity), mean of independent replicates obtained on neonatal rat ventricular cardiomyocytes (NVCM) for CCCCc1cc(=O)oc2c(C(=O)N3CCCc4ccccc43)c(OC)ccc12 [3d] .
19.5649

* * *

Tested on: neonatal rat ventricular cardiomyocytes (NVCM)
Assay: Inherent toxicity (LDH release) in NVCM
Type: cell-based
Set-up: key: % of total LDH activity
Conditions: compound alone 0.1 µM; NVCM; Suppl.Fig.4
// reported LDH release (inherent toxicity), mean of independent replicates per item
Lab note: record the figure alone, no unit after it.

CCCCc1cc(=O)oc2c(C(=O)N3CCCc4ccccc43)c(OCCC)ccc12    15.2686
CCCCc1cc(=O)oc2c(C(=O)N3CCCc4ccccc43)c(OC)ccc12    14.1948
CCCCc1cc(=O)oc2c(C(=O)N3CCCc4ccccc43)c(OC)cc(OC)c12    14.3468
CCCc1cc(=O)oc2c(C(=O)N3CCCc4ccccc43)c(OC)ccc12    16.0204
CCCOc1ccc2c(CCC)cc(=O)oc2c1C(=O)N1CCCc2ccccc21    16.7326

Specify measured LDH release (inherent toxicity), mean of independent replicates for "CCCc1cc(=O)oc2c(C(=O)N3CCCc4ccccc43)c(OC)cc(OC)c12" .
12.9938

Tell us which LDH release (inherent toxicity), mean of independent replicates value is on record for "CCCCc1cc(=O)oc2c(C(=O)N3CCCc4ccccc43)c(OCCO)ccc12"
15.5556

// fetch LDH release (inherent toxicity), mean of independent replicates given entry "CCc1cc(=O)oc2c(C(=O)N3CCCc4ccccc43)c(OCCO)ccc12"
13.7703

Look up and report measured LDH release (inherent toxicity), mean of independent replicates for this entry: "CCCc1cc(=O)oc2c(C(=O)N3CCCc4ccccc43)c(OCCO)ccc12"
14.7832

* * *

System: neonatal rat ventricular cardiomyocytes (NVCM)
Assay: Inherent toxicity (LDH release) in NVCM
Type: cell-based
Conditions: NVCM, compound alone, n=4
Items are presented alongside their recorded LTC = lowest toxic concentration.
Give the value, in units of µM, as a plain number.

CCCCc1cc(=O)oc2c(C(=O)N3CCCc4ccccc43)c(OCCC)ccc12    10

Return LTC = lowest toxic concentration (reported value) for this molecule: "CCCc1cc(=O)oc2c(C(=O)N3CCCc4ccccc43)c(OCCO)ccc12"
100

* * *

This listing pairs compounds with measured LDH release (inherent toxicity), mean of independent replicates.
Tested on: neonatal rat ventricular cardiomyocytes (NVCM)
Assay: Inherent toxicity (LDH release) in NVCM
Format: cell-based
Design: key: % of total LDH activity
Conditions: compound alone 30 µM; NVCM; Suppl.Fig.4
// no unit, no text: just the number

Solved entries (count: 3):
CCCOc1ccc2c(C)cc(=O)oc2c1C(=O)N1CCCc2ccccc21    19.993
CCCCc1cc(=O)oc2c(C(=O)N3CCCc4ccccc43)c(OCCC)ccc12    60.5761
CCCOc1ccc2c(CCC)cc(=O)oc2c1C(=O)N1CCCc2ccccc21    34.5318

Now, please, on to the next compound.
Tell me LDH release (inherent toxicity), mean of independent replicates reported for "CCCCc1cc(=O)oc2c(C(=O)N3CCCc4ccccc43)c(OC)ccc12"
19.0356
